Data provenance: patent US11716992B2

# Test system: Cercospora arachidicola
# method_notes: Fungicidal activity, fungicide growth rate method, CA
# Format: cell-based
# test_conditions: Mycosphaerella arachidis, 50 μg/mL; read-out: fungicidal activity (growth inhibition rate), CA
reported_metric: inhibition at 50 µg/mL (%)
Number only, in %; omit the unit.

Prompt line: Data request, read-out inhibition at 50 µg/mL, for C=CC[C@@H]1C[C@]2(O)CCO[C@@]23C[C@@H](O)[C@H](Cl)C[C@H]13
Response line: 14

Prompt line: Data request, read-out inhibition at 50 µg/mL, for C=CC[C@@H]1C[C@@]2(O)C[C@@H](CC=C)[C@H]3C[C@@H](O)CC[C@@]32O1
Response line: 19

Prompt line: Data request, read-out inhibition at 50 µg/mL, for C=CC[C@@H]1C[C@]2(O[Si](C)(C)CC=C)CCO[C@@]23CC[C@H](O[Si](C)(C)CC=C)C[C@@H]13
Response line: 35

Prompt line: Data request, read-out inhibition at 50 µg/mL, for C=CC[C@@H]1C[C@]2(O)CC(=O)O[C@@]23C[C@@H](Cl)[C@H](O)C[C@H]13
Response line: 31

Prompt line: Data request, read-out inhibition at 50 µg/mL, for C=CC[C@@H]1C[C@]2(O)CCO[C@@]23C[C@H]2O[C@H]2C[C@H]13
Response line: 27

Prompt line: Data request, read-out inhibition at 50 µg/mL, for C=C(C)[C@@H]1C[C@]2(O)CC(=O)O[C@@]23CC=CC[C@H]13
Response line: 33

###

# Test system: Alternaria solani
# method_notes: Fungicidal activity, fungicide growth rate method, AS
# Format: cell-based
# test_conditions: Alternaria solani, 50 μg/mL; read-out: fungicidal activity (growth inhibition rate), AS
reported_metric: inhibition at 50 µg/mL (%)
Number only, in %; omit the unit.

Below are worked cases with known answers.
C=CC[C@@H]1C[C@]2(OC(C)=O)C[C@H](OC(C)=O)O[C@@]23CC=CC[C@H]13	22
C=CC[C@@H]1C[C@]2(O)CCO[C@@]23C[C@@H]2O[C@@H]2C[C@H]13	14
C=CC[C@@H]1C[C@]2(O)CC(=O)O[C@@]23CC=CC[C@H]13	7
CO[C@@H]1CC(=O)[C@@]2(O)CC=CC[C@H]12	14
CO[C@@H]1C[C@]2(O)CC(=O)O[C@@]23CC=CC[C@H]13	0
C=CC[C@@H]1C[C@]2(O)CCO[C@@]23CC=CC[C@H]13	0
CCOC(=O)C1C(=O)O[C@]23CC=CC[C@@H]2[C@H](OC)C[C@]13O (stereo partly drawn)	14
C=CC[C@@H]1C[C@]2(O)C(C(=O)OCC)C(=O)O[C@@]23CC=CC[C@H]13 (stereo partly drawn)	14

Turning to the following compound.
Prompt line: Data request, read-out inhibition at 50 µg/mL, for C=CC[C@@H]1C[C@]2(OC(C)=O)C[C@H](OC(C)=O)O[C@@]23C[C@H]2O[C@H]2C[C@H]13
Response line: 0

###

Below, each of the compounds is paired with its reported inhibition at 50 µg/mL value.
# System: wheat Gibberella zeae
# method_notes: microbe, parasite or virus in culture
# Format: cell-based
# test_conditions: Fusarium graminearum, read-out: fungicidal activity (growth inhibition rate), GZ, 50 μg/mL
Number only, in %; omit the unit.

Below are worked cases with known answers.
C=CC[C@@H]1C[C@]2(OC(C)=O)C[C@H](OC(C)=O)O[C@@]23CC=CC[C@H]13	3
C=CC[C@@H]1C[C@]2(O)CC(O)O[C@@]23C[C@H]2O[C@H]2C[C@H]13 (some centres unmarked)	73
C=CC[C@@H]1C[C@]2(O[Si](C)(C)CC=C)CCO[C@@]23C[C@H](O[Si](C)(C)CC=C)CC[C@H]13	3
CO[C@@H]1CC(=O)[C@@]2(O)CC=CC[C@H]12	47
CO[C@@H]1C[C@]2(O)CC(=O)O[C@@]23CC=CC[C@H]13	13

Prompt line: Request body: readout inhibition at 50 µg/mL, system wheat Gibberella zeae, query C=CC[C@@H]1C[C@]2(O)CCO[C@@]23C[C@H]2O[C@H]2C[C@H]13 . Return the value.
Response line: 3

Prompt line: Request body: readout inhibition at 50 µg/mL, system wheat Gibberella zeae, query C=CC[C@@H]1C[C@]2(OC(C)=O)C[C@@H](OC(C)=O)O[C@@]23CC=CC[C@H]13 . Return the value.
Response line: 0
